# target of assay: human topoisomerase II α (Homo sapiens)
# Construct: purchased Professor Neil Osheroff (Vanderbilt University, Nashville, Tenn., USA)
# Sequence (P11388 whole entry): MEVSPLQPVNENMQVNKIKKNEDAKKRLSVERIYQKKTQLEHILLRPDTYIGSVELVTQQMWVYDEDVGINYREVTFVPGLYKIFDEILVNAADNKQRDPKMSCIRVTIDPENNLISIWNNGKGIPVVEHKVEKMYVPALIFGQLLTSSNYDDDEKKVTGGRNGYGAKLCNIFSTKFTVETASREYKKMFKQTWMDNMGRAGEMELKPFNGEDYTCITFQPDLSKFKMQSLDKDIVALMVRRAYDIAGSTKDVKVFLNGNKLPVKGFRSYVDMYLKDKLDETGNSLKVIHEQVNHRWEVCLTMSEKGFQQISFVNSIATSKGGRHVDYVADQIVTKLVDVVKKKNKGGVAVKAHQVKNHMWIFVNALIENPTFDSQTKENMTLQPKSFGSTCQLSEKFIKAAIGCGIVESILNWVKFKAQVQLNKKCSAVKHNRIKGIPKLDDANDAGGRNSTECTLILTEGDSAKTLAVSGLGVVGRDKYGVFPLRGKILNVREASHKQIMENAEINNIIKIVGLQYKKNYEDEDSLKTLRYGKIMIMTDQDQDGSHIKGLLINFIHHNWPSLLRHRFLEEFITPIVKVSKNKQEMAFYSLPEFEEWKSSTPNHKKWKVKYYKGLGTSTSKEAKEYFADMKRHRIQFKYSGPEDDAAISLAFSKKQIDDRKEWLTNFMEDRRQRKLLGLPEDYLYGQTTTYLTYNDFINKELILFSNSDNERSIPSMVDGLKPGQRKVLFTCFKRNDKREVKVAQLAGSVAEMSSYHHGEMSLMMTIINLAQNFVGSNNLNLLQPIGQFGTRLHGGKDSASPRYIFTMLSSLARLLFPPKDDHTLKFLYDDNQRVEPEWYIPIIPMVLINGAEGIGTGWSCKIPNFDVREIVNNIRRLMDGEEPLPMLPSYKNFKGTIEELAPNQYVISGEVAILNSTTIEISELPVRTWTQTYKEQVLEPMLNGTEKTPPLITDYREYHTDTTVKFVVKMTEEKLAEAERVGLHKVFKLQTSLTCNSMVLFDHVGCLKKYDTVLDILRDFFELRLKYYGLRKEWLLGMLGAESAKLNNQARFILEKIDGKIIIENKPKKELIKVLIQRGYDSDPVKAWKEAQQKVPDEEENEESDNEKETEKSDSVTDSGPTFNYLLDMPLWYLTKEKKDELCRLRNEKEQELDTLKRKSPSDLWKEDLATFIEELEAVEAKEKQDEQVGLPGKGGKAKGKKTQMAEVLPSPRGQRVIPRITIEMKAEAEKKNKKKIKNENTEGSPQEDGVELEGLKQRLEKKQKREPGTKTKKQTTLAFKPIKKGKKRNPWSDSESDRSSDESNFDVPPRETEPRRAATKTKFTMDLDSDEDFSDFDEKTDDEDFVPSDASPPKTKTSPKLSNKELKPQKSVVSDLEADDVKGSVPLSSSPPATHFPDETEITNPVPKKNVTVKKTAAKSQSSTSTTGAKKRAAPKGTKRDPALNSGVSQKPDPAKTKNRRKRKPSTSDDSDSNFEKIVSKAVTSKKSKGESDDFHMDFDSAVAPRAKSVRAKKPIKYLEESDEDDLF
# assay: Topoisomerase II ATPase assay (Malachite Green)
# Format: biochemical
# recorded conditions: Percent inhibition @10 μM, Malachite Green assay; read-out: TOPO II inh. (inhibition of the TOPO ATPase activity)
measurement label: inhibition at 10 µM

Some molecules with recorded inhibition at 10 µM:
CC(C)(C)Nc1nc(Nc2ccc3nsnc3c2)nc2[nH]cnc12: < 50%
CC(C)(Cc1ccc(F)cc1)Nc1nc(Nc2ccc3nsnc3c2)nc2[nH]cnc12: < 50%
c1nc2c(NC3CCCCCC3)nc(Nc3ccc4ncsc4c3)nc2[nH]1: < 50%
Cc1nc2c(NC(C)(C)C)nc(Nc3ccc4ncsc4c3)nc2[nH]1: 65 to 80%
CC(C)Cc1nc2c(NC(C)(C)C)nc(Nc3ccc4ccccc4c3)nc2[nH]1: < 50%
c1nc2c(NC3CC4CCC3C4)nc(Nc3ccc4ncsc4c3)nc2[nH]1 (stereo not shown): 50 to 65%
c1ccc(N2CCN(c3nc(Nc4ccc5nsnc5c4)nc4[nH]cnc34)CC2)nc1: < 50%
CCC(C)(C)Nc1nc(Nc2ccc3nsnc3c2)nc2[nH]cnc12: < 50%

INPUT: Requested field: inhibition at 10 µM. Item: Cc1nc2c(NC3CCCCCC3)nc(Nc3ccc4ncsc4c3)nc2[nH]1
OUTPUT: < 50%
